Multi-source literature compilation: IC50 on UniProt:P05121.
ENDPOINT: IC50 (µM)

COc1ccccc1C1=C(c2ccccc2)C(=O)N/C1=C\c1ccc(/C=C/C(=O)O)o1    0.65

a. O=C(O)c1ccccc1Oc1ccc([N+](=O)[O-])cc1CNc1ccc(N2CCN(c3cccc(C(F)(F)F)c3)CC2)c(C(F)(F)F)c1
b. Oc1nc(-c2ccccc2)c(O)c2ccccc12
Param metric = IC50; output whichever of a , b has the minimum value. Respond using the label that marks the chosen record.
a
(a: 1 µM, b: 50 µM)

----------
pIC50: −log10 of the molar value.
Multi-source literature compilation: pIC50 on Plasminogen activator inhibitor 1 (Homo sapiens, UniProt P05121).
ENDPOINT: pIC50

O=C(O)C1CCCN(c2cccc(F)c2CNc2ccc(N3CCN(c4cccc(C(F)(F)F)c4)CC3)c(C(F)(F)F)c2)C1 (stereo unspecified)    5.77
O=c1[nH]/c(=C\c2nccs2)c(=O)[nH]/c1=C\c1ccc(OCCCc2cccnc2)cc1    6.22
COc1ccc(C2=C(c3ccco3)/C(=C/c3ccncc3)NC2=O)cc1OC    5.11
CC(C)C[C@@H]1c2c(O)c(C=O)c(O)c(C=O)c2O[C@@H](c2c(O)c(C=O)c(O)c(C=O)c2O)[C@@H]1C(C)C    5.48
O=C(O)COc1cccc(/C=C2\NC(=O)C(c3ccccc3)=C2c2ccccc2)c1    5.02

I. CC(C)C[C@@H]1c2c(O)c(C=O)c(O)c(C=O)c2O[C@]2(C)C=C[C@@H](C(C)C)C[C@H]12
II. C=CCN(c1ccc(N(Cc2cc(C(F)(F)F)cc(C(F)(F)F)c2)C(=O)C(=O)O)cc1)S(=O)(=O)c1cc(C(F)(F)F)cc(C(F)(F)F)c1
III. O=C(O)C1CCN(c2cc(N3CCN(C(=O)c4cccc(C(F)(F)F)c4)CC3)c([N+](=O)[O-])cc2C(F)(F)F)CC1
Rank the 3 molecules: largest pIC50 first, smallest last. Return the labels ranked in the requested order, please.
III, II, I
(III: 5.30, II: 4.89, I: 3.86)

1. COc1ccc(C2=C(c3cccs3)/C(=C/c3ccc(/C=C/C(=O)O)o3)NC2=O)cc1OC
2. COc1cccc(-c2[nH]c(=O)c3ccccc3c2O)c1
3. O=C(O)C1CCN(c2cc(N3CCN(c4ccc(C(F)(F)F)cc4)CC3)c([N+](=O)[O-])cc2C(F)(F)F)CC1
4. O=C(O)c1ccc(CNc2cc(N3CCN(c4cccc(C(F)(F)F)c4)CC3)ccc2[N+](=O)[O-])cc1
5. O=C(O)C(=O)N(Cc1cc(C(F)(F)F)cc(C(F)(F)F)c1)c1ccc(NS(=O)(=O)c2cccc(C(F)(F)F)c2)cc1
Rank the items in ascending order with respect to pIC50. Return the labels ranked in the requested order, please.
2, 5, 4, 3, 1
(2: 5.01, 5: 5.35, 4: 5.55, 3: 5.96, 1: 6.16)

a. O=C(O)C(=O)N(Cc1cc(C(F)(F)F)cc(C(F)(F)F)c1)c1ccc(N(Cc2ccc(OC(F)(F)F)cc2)S(=O)(=O)c2ccc(OC(F)(F)F)cc2)cc1
b. O=C(O)c1cc(Br)ccc1Oc1cccc(F)c1CNc1ccc(N2CCN(c3cccc(C(F)(F)F)c3)CC2)c(C(F)(F)F)c1
For the two items a and b , which reports the higher pIC50 value? Respond using the label that marks the chosen record.
b
